measured.target: protein-protein interaction between Kras and SOS1 (biotin-tagged human Kras loaded with GDP, His-tagged human SOS1) (Homo sapiens (Human), UniProt P01116, G12D)
assay.procedure: Protein-protein interaction inhibition between Kras and SOS1 (KrasG12D-SOS PPI) using AlphaScreen
Assay type: biochemical
test.parameters: AlphaScreen; biotin-tagged human Kras loaded with GDP, His-tagged human SOS1; read-out: KRAS G12D-SOS PPI IC50
Bridge positions count the residues as written; N and C are the ends. Square brackets hold non-standard residues; d marks the D form. Peptide text beside a SMILES is read from it. * marks the point of attachment. hPhe(3-Cl-4-CF3) = N[C@@H](CCc1ccc(C(F)(F)F)c(Cl)c1)C(=O)O; hPhe(3-F,4-CF3) = N[C@@H](CCc1ccc(C(F)(F)F)c(F)c1)C(=O)O; NMePhe(4-CF3) = CN[C@@H](Cc1ccc(C(F)(F)F)cc1)C(=O)O; NMeGly(cPent) = CN[C@H](C(=O)O)C1CCCC1; NMeCha = CN[C@@H](CC1CCCCC1)C(=O)O; Hyp = O=C(O)[C@@H]1C[C@@H](O)CN1; NMeAhp(2) = CCCCC[C@H](NC)C(=O)O; NMeI = CC[C@H](C)[C@H](NC)C(=O)O; NMeD = CN[C@@H](CC(=O)O)C(=O)O; NMeL = CN[C@@H](CC(C)C)C(=O)O; NMeA = CN[C@@H](C)C(=O)O; Piperidide = C1CCN(*)CC1; Pyrrolidide = C1CCN(*)C1; Ac5c = NC1(C(=O)O)CCCC1; Aze = O=C(O)[C@@H]1CCN1; Sar = CNCC(=O)O
Entries annotated with measured IC50
State just the number; it will be interpreted in nM.

Field: example entries. Status: answers known.
| compound | IC50 / nM |
| --- | --- |
| CCCCC[C@H]1C(=O)N[C@@H]([C@@H](C)CC)C(=O)N[C@@H](C)C(=O)N2CC[C@H]2C(=O)N(C)[C@@H](Cc2ccc(C(F)(F)F)cc2)C(=O)N(C)CC(=O)N[C@@H](CCc2ccc(C(F)(F)F)c(Cl)c2)C(=O)N2CCC[C@H]2C(=O)NC2(CCCC2)C(=O)N(C)[C@@H]([C@@H](C)CC)C(=O)N(C)[C@H](C(=O)N2CCCC2)CC(=O)N1C [Compound 209] ([NMeAhp(2)]IA[Aze][NMePhe(4-CF3)][Sar][hPhe(3-Cl-4-CF3)]P[Ac5c][NMeI][NMeD]-Pyrrolidide; lactam N-11) | 1.6 |
| CCO[C@@H]1C[C@H]2C(=O)NC3(CCCC3)C(=O)N(C)[C@@H](C3CCCC3)C(=O)N(C)[C@H](C(=O)N(C)C)CC(=O)N(C)[C@@H](CC(C)C)C(=O)N[C@@H]([C@@H](C)CC)C(=O)N(C)[C@@H](C)C(=O)N3CC[C@H]3C(=O)N(C)[C@@H](CC3CCCCC3)C(=O)N(C)CC(=O)N[C@@H](CCc3ccc(C(F)(F)F)c(F)c3)C(=O)N2C1 [Compound 1231] ([NMeL]I[NMeA][Aze][NMeCha][Sar][hPhe(3-F,4-CF3)][Hyp](Et)[Ac5c][NMeGly(cPent)][NMeD]-NMe2; lactam N-11) | 0.59 |

Exam item: Using the record for CC[C@H](C)[C@@H]1NC(=O)[C@H](CC(C)C)N(C)C(=O)C[C@@H](C(=O)N2CCCCC2)N(C)C(=O)[C@H]([C@@H](C)CC)N(C)C(=O)C2(CCCC2)NC(=O)[C@@H]2CCCN2C(=O)[C@H](CCc2ccc(C(F)(F)F)c(Cl)c2)NC(=O)CN(C)C(=O)[C@H](C2CCCC2)N(C)C(=O)[C@@H]2CCN2C(=O)[C@H](C)N(C)C1=O [Compound 807] ([NMeL]I[NMeA][Aze][NMeGly(cPent)][Sar][hPhe(3-Cl-4-CF3)]P[Ac5c][NMeI][NMeD]-Piperidide; lactam N-11) , report its IC50.
Marked response: 0.74

* * *

measured.target: protein-protein interaction between Kras and SOS1 (biotin-tagged human Kras loaded with GDP, His-tagged human SOS1) (Homo sapiens (Human), UniProt P01116, G12D)
assay.procedure: Protein-protein interaction inhibition between Kras and SOS1 (KrasG12D-SOS PPI) using AlphaScreen
Type: biochemical
test.parameters: AlphaScreen; biotin-tagged human Kras loaded with GDP, His-tagged human SOS1; read-out: KRAS G12D-SOS PPI IC50
Numbered stars: 1 amine (or outer) side, 2 acyl side, 3 side chain; on linkers, the order of the positions; unused ones are H or OH. Bridge positions count the residues as written; N and C are the ends. Square brackets hold non-standard residues; d marks the D form. Peptide text beside a SMILES is read from it. * marks the point of attachment. hPhe(3-Cl-4-CF3) = N[C@@H](CCc1ccc(C(F)(F)F)c(Cl)c1)C(=O)O; hPhe(4-CF3) = N[C@@H](CCc1ccc(C(F)(F)F)cc1)C(=O)O; X37 = CC(C)(C)NC(=O)COC[C@H](CC(=O)[*:1])N[*:2]; X22 = O=C([C@H](CCc1ccc(C(F)F)nc1)N[*:1])[*:2]; NMePhe(4-Cl) = CN[C@@H](Cc1ccc(Cl)cc1)C(=O)O; NMedβ3hAla = C[C@H](CC(=O)[*:2])N(C)[*:1]; NMeGly(cPent) = CN[C@H](C(=O)O)C1CCCC1; NMeCha = CN[C@@H](CC1CCCCC1)C(=O)O; NMeF = CN[C@@H](Cc1ccccc1)C(=O)O; NMeD = CN[C@@H](CC(=O)O)C(=O)O; NMeL = CN[C@@H](CC(C)C)C(=O)O; NMeS = CN[C@@H](CO)C(=O)O; NMeA = CN[C@@H](C)C(=O)O; Nle = CCCC[C@H](N)C(=O)O; Piperidide = C1CCN(*)CC1; Ac5c = NC1(C(=O)O)CCCC1; Aze = O=C(O)[C@@H]1CCN1; Aib = CC(C)(N)C(=O)O; Isopentyl = CC(C)CC*; Sar = CNCC(=O)O
Entries and their pIC50 values follow.
Recall that pIC50 is obtained by taking minus log10 of the concentration measured in molar.

| molecule | readout.value |
| --- | --- |
| CC[C@H](C)[C@@H]1NC(=O)[C@H](CC(C)C)N(C)C(=O)C[C@@H](C(=O)N2CCCCC2)N(C)C(=O)[C@H](C2CCCC2)N(C)C(=O)C2(CCCC2)NC(=O)[C@@H]2CCCN2C(=O)[C@H](CCc2ccc(C(F)F)nc2)NC(=O)CN(C)C(=O)[C@H](CC2CCCCC2)N(C)C(=O)[C@@H]2CCN2C(=O)[C@H](C)N(C)C1=O [Compound 2060] ([NMeL]I[NMeA][Aze][NMeCha][Sar][X22]P[Ac5c][NMeGly(cPent)][NMeD]-Piperidide; lactam N-11 (inferred); C-terminus assumed) | 6.96 |

Exam item: Given the entry CCCC[C@@H]1NC(=O)[C@H](CCc2ccc(C(F)(F)F)c(Cl)c2)NC(=O)CN(C)C(=O)[C@H](Cc2ccc(Cl)cc2)N(C)C(=O)CN(C)C(=O)CN(C)C(=O)[C@H]([C@@H](C)CC)NC(=O)[C@H](CC(C)C)N(C)C(=O)C[C@@H](C)N(C)C(=O)[C@H](CC(C)C)NC(=O)[C@H](Cc2ccccc2)N(C)C1=O [Compound 566] (cyclo(I[Sar][Sar][NMePhe(4-Cl)][Sar][hPhe(3-Cl-4-CF3)][Nle][NMeF]L[NMedβ3hAla][NMeL])) , report its measured pIC50.
Marked response: 6.80

Exam item: What does the record list as pIC50 for CC[C@H](C)[C@@H]1NC(=O)[C@H](CC(C)C)N(C)C(=O)C[C@@H](COCC(=O)NC(C)(C)C)NC(=O)[C@H](CC(C)C)N(C)C(=O)C(C)(C)NC(=O)[C@H](CC(C)C)N(C)C(=O)[C@H](CCc2ccc(C(F)(F)F)cc2)NC(=O)CN(C)C(=O)[C@H](COCCC(C)C)N(C)C(=O)CN(C)C(=O)CN(C)C1=O [Compound 1538] ([NMeL]I[Sar][Sar][NMeS](Isopentyl)[Sar][hPhe(4-CF3)][NMeL][Aib][NMeL]; linker N-C via X37) ?
Marked response: 6.96

* * *

# key: entry, value: IC50
measured.target: protein-protein interaction between Kras and SOS1 (biotin-tagged human Kras loaded with GDP, His-tagged human SOS1) (Homo sapiens (Human), UniProt P01116, G12D)
assay.procedure: Protein-protein interaction inhibition between Kras and SOS1 (KrasG12D-SOS PPI) using AlphaScreen;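 further: kras produced in E. coli, Ni-coupled donor beads and streptavidin acceptor beads, excitation 680 nm with emission detected at 520–620 nm via singlet oxygen transfer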
Assay type: biochemical
test.parameters: AlphaScreen; biotin-tagged human Kras loaded with GDP, His-tagged human SOS1; read-out: KRAS G12D-SOS PPI IC50
Numbered stars: 1 amine (or outer) side, 2 acyl side, 3 side chain; on linkers, the order of the positions; unused ones are H or OH. Bridge positions count the residues as written; N and C are the ends. Square brackets hold non-standard residues; d marks the D form. Peptide text beside a SMILES is read from it. * marks the point of attachment. hPhe(3-Cl-4-CF3) = N[C@@H](CCc1ccc(C(F)(F)F)c(Cl)c1)C(=O)O; hPhe(4-CF3) = N[C@@H](CCc1ccc(C(F)(F)F)cc1)C(=O)O; NMePhe(4-Cl) = CN[C@@H](Cc1ccc(Cl)cc1)C(=O)O; NMedβ3hAla = C[C@H](CC(=O)[*:2])N(C)[*:1]; NMeGly(cPent) = CN[C@H](C(=O)O)C1CCCC1; NMeF = CN[C@@H](Cc1ccccc1)C(=O)O; NMeT = CN[C@H](C(=O)O)[C@@H](C)O; NMeD = CN[C@@H](CC(=O)O)C(=O)O; NMeL = CN[C@@H](CC(C)C)C(=O)O; NMeV = CN[C@H](C(=O)O)C(C)C; d(β3hA) = C[C@@H](N)CC(=O)O; Pip = O=C(O)[C@@H]1CCCCN1; NMeA = CN[C@@H](C)C(=O)O; Piperidide = C1CCN(*)CC1; Ac5c = NC1(C(=O)O)CCCC1; Aze = O=C(O)[C@@H]1CCN1; Sar = CNCC(=O)O
Reply with just the number (in nM).

Study these solved cases before continuing.
| molecule | reported.endpoint | readout.value |
| --- | --- | --- |
| CC[C@H](C)[C@@H]1NC(=O)[C@H](CC(C)C)N(C)C(=O)C[C@@H](C)N(C)C(=O)[C@H](C2CCCC2)N(C)C(=O)C2(CCCC2)NC(=O)[C@@H]2CCCN2C(=O)[C@H](CCc2ccc(C(F)(F)F)c(Cl)c2)NC(=O)CN(C)C(=O)[C@H](C2CCCC2)N(C)C(=O)[C@@H]2CCN2C(=O)[C@H](C)N(C)C1=O [Compound 1046] (cyclo([Ac5c][NMeGly(cPent)][NMedβ3hAla][NMeL]I[NMeA][Aze][NMeGly(cPent)][Sar][hPhe(3-Cl-4-CF3)]P)) | IC50 | 4.6 |
| CC[C@H](C)[C@@H]1NC(=O)[C@H](CC(C)C)N(C)C(=O)C[C@@H](C(=O)N2CCCCC2)N(C)C(=O)[C@H](C(C)C)N(C)C(=O)C2(CCCC2)NC(=O)[C@@H]2CCCN2C(=O)[C@H](CCc2ccc(C(F)(F)F)c(Cl)c2)NC(=O)CN(C)C(=O)[C@H]([C@@H](C)O)N(C)C(=O)[C@@H]2CCN2C(=O)[C@H](C)N(C)C1=O [Compound 862] ([NMeL]I[NMeA][Aze][NMeT][Sar][hPhe(3-Cl-4-CF3)]P[Ac5c][NMeV][NMeD]-Piperidide; lactam N-11) | IC50 | 2.7 |

Lab note: next molecule to report on.
Exam item: I am curious: what IC50 value has been reported for CC[C@H](C)[C@@H]1NC(=O)[C@@H]2CCCCN2C(=O)C[C@@H](C)NC(=O)[C@H](CC(C)C)N(C)C(=O)[C@H](Cc2ccccc2)N(C)C(=O)[C@@H]2CCCN2C(=O)[C@H](CCc2ccc(C(F)(F)F)cc2)NC(=O)CN(C)C(=O)[C@H](Cc2ccc(Cl)cc2)N(C)C(=O)CN(C)C(=O)CN(C)C1=O [Compound 632] (cyclo(I[Sar][Sar][NMePhe(4-Cl)][Sar][hPhe(4-CF3)]P[NMeF][NMeL][d(β3hA)][Pip])) ?
Marked response: 73
